Reported pIC50 values for the following molecules.
- ASSAYED_SYSTEM: EGFR mutant L858R (Homo sapiens, UniProt P00533, L858R)
- Construct: truncated human JAK3, EGFR mutants such as del E746-A750; purchased Carna Biosciences
- Sequence (P00533 669-1210 L858R limits assumed): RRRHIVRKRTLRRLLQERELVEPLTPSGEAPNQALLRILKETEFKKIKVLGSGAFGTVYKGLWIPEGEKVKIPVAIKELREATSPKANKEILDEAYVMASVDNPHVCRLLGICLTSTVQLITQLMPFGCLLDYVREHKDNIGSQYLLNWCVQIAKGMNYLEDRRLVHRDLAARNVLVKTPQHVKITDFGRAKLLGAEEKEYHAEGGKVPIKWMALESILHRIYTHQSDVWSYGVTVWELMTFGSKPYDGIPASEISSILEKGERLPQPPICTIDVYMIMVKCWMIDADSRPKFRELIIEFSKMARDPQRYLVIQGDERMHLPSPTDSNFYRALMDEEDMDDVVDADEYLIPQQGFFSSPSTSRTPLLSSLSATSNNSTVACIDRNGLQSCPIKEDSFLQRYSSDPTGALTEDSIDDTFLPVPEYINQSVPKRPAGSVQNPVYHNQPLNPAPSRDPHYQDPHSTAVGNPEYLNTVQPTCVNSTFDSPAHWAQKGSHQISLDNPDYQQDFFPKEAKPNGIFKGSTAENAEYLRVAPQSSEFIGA
- EXPERIMENTAL_PROTOCOL: Kinase inhibition assay, EGFR L858R;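 further: truncated human EGFR L858R kinase with compound preincubation, ULight-PolyGT peptide phosphorylation read by Europium-antibody Lance detection, IC50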
- Format: biochemical
- EXPERIMENTAL_PARAMETERS: read-out: EGFR mutants L858R
pIC50: −log10 of the molar value.

Answered examples (4):
C=CC(=O)Nc1cc(Nc2ncc(C)c(-n3cc(CN4CCC4)c(C(C)(C)C)n3)n2)c(OC)cc1N1CCOCC1 : > 7.70
C=CC(=O)Nc1cc(Nc2nccc(-n3cc(CN(C)C)c(-c4ccccc4)n3)n2)c(OC)cc1N1CCOCC1 : > 7.70
C=CC(=O)Nc1cc(Nc2ncc(C)c(-n3cc(CN(C)C)c(C4CC4)n3)n2)c(OC)cc1N(C)C1COC1 : > 7.70
Cc1cc(C)cc(Nc2nccc(-n3cc(CN4CC(O)C4)c(C)n3)n2)c1 [Compound 147, reference compound] : < 6.00

Okay, next one:
Lookup: Tell me reported pIC50 for C=CC(=O)Nc1cc(Nc2nccc(-n3cc(CN4CCC4)c(-c4ccccc4)n3)n2)c(OC)cc1N(C)CCOC , tested with EGFR mutant L858R (Homo sapiens, UniProt P00533, L858R).
Found: > 7.70

Reference for the values: patent USRE50528E1
